The reported numbers originate from patent US20230134571A1.

- TEST TARGET: HIV Env, isolate ZM109F.PB4 (HIV)
- TEST PROTOCOL: cell-based or functional assay
PROPERTY LABEL: IC80 (µg/ml) with constrains (µg/mL)
Enter your answer as a number in µg/mL; do not include the unit.

QUERY: Recorded IC80 (µg/ml) with constrains for PGDM1400 (antibody, V domains shown) VH: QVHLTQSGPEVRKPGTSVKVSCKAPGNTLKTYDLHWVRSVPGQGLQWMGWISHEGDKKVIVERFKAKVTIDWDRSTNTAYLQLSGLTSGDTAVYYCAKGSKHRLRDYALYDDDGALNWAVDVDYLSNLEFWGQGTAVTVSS VL: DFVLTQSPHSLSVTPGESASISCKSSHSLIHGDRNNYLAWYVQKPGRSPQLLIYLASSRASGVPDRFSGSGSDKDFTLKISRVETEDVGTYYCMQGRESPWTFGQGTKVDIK , please?
RESULT: 0.39
